Biological target: Cytochrome P450 3A4 (Homo sapiens)
Test: Cytochrome P450 Family 3 Subfamily A Member 4 (CYP3A4) small molecule antagonists: luciferase reporter qHTS assay (AID 1671201); further: nearly all actives have a fitted effect of over 50% in size; further: potency means the concentration at half of the fitted maximal effect
Settings: P450-Glo CYP3A4 enzyme, luciferin luminescence, 1 h; series mostly up to 115 µM
Inconclusive results are not listed. Calls of active or inactive are those of the source. The call rests on the fitted dose curve; in most records, active means well fitted inhibition curve with a large enough effect in the repeat runs; inconclusive means weak or mixed curves; inactive means no such curve, though single readings can be large or run the other way.
QUANTITY: Potency

# count of solved cases: 5
1) C=COCCCCO : inactive
2) CCO/C=C1\N=C(c2ccccc2)OC1=O : inactive
3) Cc1ccc(O)c([N+](=O)[O-])c1 : inactive
4) CCc1ccc(CC)cc1 : inactive
5) CCN(CC)CC(=O)Oc1ccc(NC(C)=O)cc1 : inactive

Incoming: Given the compound CCOC(=O)COc1ccc2c(C)c(CCN(CC)CC)c(=O)oc2c1Cl , write its reported Potency.
Outgoing: inactive

Incoming: Given the compound CCCC(=O)OC , write its reported Potency.
Outgoing: inactive

Incoming: Given the compound Cc1ccc(OC(=O)CC(C)C)cc1 , write its reported Potency.
Outgoing: inactive

Incoming: Given the compound CCCCCCCC(=O)N(C)C , write its reported Potency.
Outgoing: inactive

Incoming: Given the compound Cc1cc(C)c(N)c(Cl)c1 , write its reported Potency.
Outgoing: inactive

Incoming: Given the compound CC(C)(C)C(=O)NCCCC(=O)O , write its reported Potency.
Outgoing: inactive

Incoming: Given the compound CC(=O)c1c(C)cc(C(C)(C)C)cc1C , write its reported Potency.
Outgoing: inactive

Incoming: Given the compound CC(=O)Nc1ccc(S(=O)(=O)Nc2cc(C)on2)cc1 , write its reported Potency.
Outgoing: inactive

Incoming: Given the compound CC[C@@]1(c2ccccc2)NC(=O)N(C)C1=O , write its reported Potency.
Outgoing: inactive

Incoming: Given the compound COC(=O)N/N=C/c1c[n+]([O-])c2ccccc2[n+]1[O-] , write its reported Potency.
Outgoing: inactive

Incoming: Given the compound O=Cc1ccccc1S(=O)(=O)O , write its reported Potency.
Outgoing: inactive

Incoming: Given the compound CNCCc1ccccn1 , write its reported Potency.
Outgoing: inactive

Incoming: Given the compound CCN1CCN(C(=O)N[C@@H](C(=O)N[C@@H]2C(=O)N3[C@@H]2SC(C)(C)[C@H]3C(=O)O)c2ccccc2)C(=O)C1=O , write its reported Potency.
Outgoing: inactive

Incoming: Given the compound O=P(O)(O)C(O)(Cc1cccnc1)P(=O)(O)O , write its reported Potency.
Outgoing: inactive

Incoming: Given the compound C=CCn1cc[n+](C)c1 , write its reported Potency.
Outgoing: inactive

Incoming: Given the compound CCCCC(CC)COC(=O)CC#N (stereo not drawn) , write its reported Potency.
Outgoing: 39.9 µM (active)

Incoming: Given the compound CC(C)=CCC/C(C)=C\C#N , write its reported Potency.
Outgoing: inactive

Incoming: Given the compound CCCCS , write its reported Potency.
Outgoing: inactive

Incoming: Given the compound CCCCCCCCS(=O)(=O)O , write its reported Potency.
Outgoing: inactive

Incoming: Given the compound CCCCCCC(=O)c1ccccc1 , write its reported Potency.
Outgoing: inactive

Incoming: Given the compound CC1(C)CC(N)CC(C)(C)N1 , write its reported Potency.
Outgoing: inactive

Incoming: Given the compound CC(C)CC(O)Cc1ccccc1 (stereo not drawn) , write its reported Potency.
Outgoing: inactive

Incoming: Given the compound C=C(C)C(=O)OCCOC1CC2CC1C1C=CCC21 (stereo not drawn) , write its reported Potency.
Outgoing: inactive
